// values below are reported IC50
target: full length active recombinant SYK enzyme (Homo sapiens, UniProt P43405); construct: full length active recombinant SYK enzyme (Millipore, Calif.); assay: Inhibition of Syk tyrosine phosphorylation activity (LANCE TR-FRET kinase assay); conditions: activity in the Syk assays, class symbols

Solved entries (count: 3):
# compound, assay_metric, measured_result
measured = [
    ("CC(C)C[C@@H](Nc1cnc(C(N)=O)c(Nc2ccc(-c3ccno3)cc2)n1)C(N)=O [Example 21]", "IC50", "0.001 to 0.01 µM"),
    ("CC[C@@H](Nc1cnc(C(N)=O)c(Nc2cc(OC)cc(OC)c2)n1)C(N)=O [Example 158]", "IC50", "0.01 to 0.1 µM"),
    ("COc1cc(Nc2nc(N[C@@H](C(N)=O)C(C)C)cnc2C(N)=O)ccn1 [Example 315]", "IC50", "0.01 to 0.1 µM"),
]

Let us move to another entry and its IC50.
Query: What value of IC50 has been recorded for this entry: CC(C)C[C@@H](Nc1cnc(C(N)=O)c(Nc2ccc(C(=O)N3CCC3)cc2)n1)C(N)=O [Example 293]
Response: 0.001 to 0.01 µM

====

// values below are reported pIC50
target: full length active recombinant SYK enzyme (Homo sapiens); construct: full length active recombinant SYK enzyme (Millipore, Calif.); purchased Millipore; assay: Inhibition of Syk tyrosine phosphorylation activity (LANCE TR-FRET kinase assay); type: biochemical; conditions: activity in the Syk assays, class symbols
pIC50: −log10 of the molar value.

Solved entries (count: 4):
# compound, assay_metric, measured_result
rows = [
    ("CC[C@@H](Nc1cnc(C(N)=O)c(Nc2snc3ccccc23)n1)C(N)=O", "pIC50", "> 9.00"),
    ("NC(=O)c1ncc(N[C@@H]2CCCC[C@@H]2N)nc1Nc1cc(N2CCOCC2)cc(-n2cccn2)c1", "pIC50", "8.00 to 9.00"),
    ("Cc1cc(Nc2nc(N[C@H](CC3CC3)C(N)=O)cnc2C(N)=O)ccn1", "pIC50", "8.00 to 9.00"),
    ("CC[C@@H](Nc1cnc(C(N)=O)c(Nc2snc(C)c2Cl)n1)C(N)=O", "pIC50", "7.00 to 8.00"),
]

Query: What value of pIC50 has been recorded for this entry: COC[C@@H](Nc1cnc(C(N)=O)c(Nc2cc(C)ns2)n1)C(N)=O
Response: 7.00 to 8.00

Query: What value of pIC50 has been recorded for this entry: CC(C)[C@@H](Nc1cnc(C(N)=O)c(Nc2cccc(CN3CCOCC3)c2)n1)C(N)=O
Response: 6.00 to 7.00

Query: What value of pIC50 has been recorded for this entry: Cc1cc(Nc2nc(NC3(C(N)=O)CCCCC3)cnc2C(N)=O)sn1
Response: 7.00 to 8.00

====

// values below are reported pIC50
target: full length active recombinant SYK enzyme (Homo sapiens, UniProt P43405); construct: full length active recombinant SYK enzyme (Millipore, Calif.); assay: Inhibition of Syk tyrosine phosphorylation activity (LANCE TR-FRET kinase assay); conditions: activity in the Syk assays, class symbols
pIC50: −log10 of the molar value.

Solved entries (count: 2):
# molecule, pIC50
data = [
    ("NC(=O)c1ncc(N[C@H](Cc2cccs2)C(N)=O)nc1Nc1ccc2ncccc2c1 [Example 32]", "> 9.00"),
    ("NC(=O)c1ncc(N[C@@H]2CCNC2)nc1Nc1cnc2ccncc2c1 [Example 117]", "7.00 to 8.00"),
]

Query: What value of pIC50 has been recorded for this entry: NC(=O)c1ncc(N[C@H]2CCCNC2)nc1Nc1cnc2ccccc2c1 [Example 57]
Response: 6.00 to 7.00

Query: What value of pIC50 has been recorded for this entry: CC[C@@H](Nc1cnc(C(N)=O)c(Nc2ccc(-c3cccnc3)cc2)n1)C(N)=O [Example 29]
Response: 8.00 to 9.00

Query: What value of pIC50 has been recorded for this entry: NC(=O)c1ncc(N[C@@H]2CCCC[C@@H]2N)nc1Nc1ccnc(F)c1 [Example 263]
Response: 8.00 to 9.00

Query: What value of pIC50 has been recorded for this entry: CC[C@@H](Nc1cnc(C(N)=O)c(Nc2ccc3c(c2)CCC(=O)N3)n1)C(N)=O [Example 30]
Response: 8.00 to 9.00

Query: What value of pIC50 has been recorded for this entry: COc1ncc(Nc2nc(N[C@@H]3CCCC[C@@H]3N)cnc2C(N)=O)cn1 [Example 305]
Response: 7.00 to 8.00

====

biological target: full length active recombinant SYK enzyme (Homo sapiens); construct: full length active recombinant SYK enzyme (Millipore, Calif.); experiment: Inhibition of Syk tyrosine phosphorylation activity (LANCE TR-FRET kinase assay); conditions: activity in the Syk assays, class symbols
pIC50: −log10 of the molar value.
assay_metric: pIC50

# molecule, measured_result
data = [
    ("CC[C@@H](Nc1cnc(C(N)=O)c(Nc2cnn(C)c2)n1)C(N)=O [Example 211]", "6.00 to 7.00"),
    ("NC(=O)c1ncc(N[C@@H]2CCCC[C@@H]2N)nc1Nc1csc2ncccc12 [Example 428]", "> 9.00"),
    ("COc1cc(Nc2nc(N[C@H](CC3CC3)C(N)=O)cnc2C(N)=O)cc(OC)c1 [Example 164]", "8.00 to 9.00"),
    ("NC(=O)c1ncc(N[C@@H]2CCCC(F)(F)[C@@H]2N)nc1Nc1ccc(-c2ccno2)cc1 [Example 18]", "7.00 to 8.00"),
    ("CN1C(=O)COc2ccc(Nc3nc(N[C@@H]4CCCC(F)(F)[C@@H]4N)cnc3C(N)=O)cc21 [Example 230]", "7.00 to 8.00"),
]

Query: What value of pIC50 has been recorded for this entry: NC(=O)c1ncc(N[C@@H]2CCCC[C@@H]2N)nc1Nc1cnc2ccc(F)cc2c1 [Example 198]
Response: 8.00 to 9.00

Query: What value of pIC50 has been recorded for this entry: CCc1cc(Nc2nc(N[C@@H]3CCCC(F)(F)[C@@H]3N)cnc2C(N)=O)ccn1 [Example 355]
Response: 7.00 to 8.00

Query: What value of pIC50 has been recorded for this entry: Cc1ccc(Nc2nc(N[C@H](CC(F)F)C(N)=O)cnc2C(N)=O)cc1 [Example 123]
Response: 8.00 to 9.00

Query: What value of pIC50 has been recorded for this entry: CC(C)C[C@@H](Nc1cnc(C(N)=O)c(Nc2ccc(-n3cccn3)cc2)n1)C(N)=O [Example 71]
Response: 7.00 to 8.00

Query: What value of pIC50 has been recorded for this entry: NC(=O)c1ncc(N[C@@H]2CCCC[C@@H]2N)nc1Nc1ccc(F)nc1 [Example 304]
Response: 7.00 to 8.00

Query: What value of pIC50 has been recorded for this entry: CC[C@@H](Nc1cnc(C(N)=O)c(Nc2cnc3ncccc3c2)n1)C(N)=O [Example 380]
Response: 8.00 to 9.00

Query: What value of pIC50 has been recorded for this entry: Cn1ccc2c(Nc3nc(N[C@H](CC4CC4)C(N)=O)cnc3C(N)=O)cccc21 [Example 397]
Response: 8.00 to 9.00

Query: What value of pIC50 has been recorded for this entry: Cc1ccc(Nc2nc(N[C@H](CC3CC3)C(N)=O)cnc2C(N)=O)cc1 [Example 174]
Response: 7.00 to 8.00

====

molecular target: full length active recombinant SYK enzyme (Homo sapiens, UniProt P43405); construct: full length active recombinant SYK enzyme (Millipore, Calif.); test: Inhibition of Syk tyrosine phosphorylation activity (LANCE TR-FRET kinase assay); conditions: activity in the Syk assays, class symbols
// values below are reported IC50

Solved entries (count: 6):
# entry_smiles, experimental_target, assay_metric, measured_result
records = [
    ("CC[C@@H](Nc1cnc(C(N)=O)c(Nc2cnc3ccncc3c2)n1)C(N)=O", "full length active recombinant SYK enzyme (Homo sapiens, UniProt P43405)", "IC50", "1 to 10 nM"),
    ("NC(=O)c1ncc(N[C@H](CC2CC2)C(N)=O)nc1Nc1ccc2ncccc2c1", "full length active recombinant SYK enzyme (Homo sapiens, UniProt P43405)", "IC50", "1 to 10 nM"),
    ("NC(=O)c1ncc(N[C@H](Cc2c[nH]c3ccccc23)C(N)=O)nc1Nc1ccc2ncccc2c1", "full length active recombinant SYK enzyme (Homo sapiens, UniProt P43405)", "IC50", "1 to 10 nM"),
    ("NC(=O)c1ncc(N[C@@H]2CCCC(F)(F)[C@@H]2N)nc1Nc1ccc2ccncc2c1", "full length active recombinant SYK enzyme (Homo sapiens, UniProt P43405)", "IC50", "1 to 10 nM"),
    ("Cc1cc(C)cc(Nc2nc(N[C@@H](C(N)=O)C(C)C)cnc2C(N)=O)c1", "full length active recombinant SYK enzyme (Homo sapiens, UniProt P43405)", "IC50", "10 to 100 nM"),
    ("CC[C@@H](Nc1cnc(C(N)=O)c(Nc2ccc(-c3cnn(C)c3)cc2)n1)C(N)=O", "full length active recombinant SYK enzyme (Homo sapiens, UniProt P43405)", "IC50", "1 to 10 nM"),
]

Let us move to another entry and its IC50.
Query: What value of IC50 has been recorded for this entry: Cc1ccc(Nc2nc(N[C@H](CC(C)C)C(N)=O)cnc2C(N)=O)cn1
Response: 10 to 100 nM

# credit: patent US9359308B2
